Assign IC50 to each entry below.
# measuredOn: EP3 receptor (Homo sapiens, UniProt P43115)
# Sequence (P43115 whole entry): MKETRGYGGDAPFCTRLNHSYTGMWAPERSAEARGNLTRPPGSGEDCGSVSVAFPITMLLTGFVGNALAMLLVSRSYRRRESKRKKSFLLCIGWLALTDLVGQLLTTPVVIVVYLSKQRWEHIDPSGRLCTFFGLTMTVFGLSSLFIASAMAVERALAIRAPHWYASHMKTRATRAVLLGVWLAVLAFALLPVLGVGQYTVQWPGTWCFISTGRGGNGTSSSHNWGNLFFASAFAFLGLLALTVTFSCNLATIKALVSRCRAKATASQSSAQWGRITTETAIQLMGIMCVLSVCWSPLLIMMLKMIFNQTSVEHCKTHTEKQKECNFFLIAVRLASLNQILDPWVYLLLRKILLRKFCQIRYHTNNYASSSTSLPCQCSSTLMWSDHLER
# testProtocol: CHO cell cAMP assay (forskolin and sulprostone stimulated, HTRF)
# conditionInfo: CHO cells; sulprostone 700 nM (EC80) and FSK 2 μM (EC70), 37° C. for 30 minutes; read-out: CHO_cAMP IC50

Query for EP3 receptor (Homo sapiens, UniProt P43115): what IC50 does the record show for "CCn1ncc2c(F)c(-c3ccc(C(/C=C4/OC(=O)NC4=O)(CC)CC)c(=O)[nH]3)ccc21" ?
> 20 µM

Query for EP3 receptor (Homo sapiens, UniProt P43115): what IC50 does the record show for "O=c1[nH]c(-c2ccc3ccccc3c2)ccc1C1CCNCC1" ?
> 20 µM

Query for EP3 receptor (Homo sapiens, UniProt P43115): what IC50 does the record show for O=c1[nH]c(-c2ccc3ccccc3c2)ccc1C1CCc2oncc2C1 (stereo not drawn) ?
> 20 µM
